Recorded values, source patent US20250223281A1.

- TARGET UNDER TEST: GPR40 (Homo sapiens)
- Construct: expressed in transfected cells; host or cells: HEK293 cells stably expressing GPR40 (Hygromycin selection)
- PROTOCOL DESCRIPTION: IP1 accumulation assay in HEK293 cells stably expressing GPR40
- Assay type: cell-based
- CONDITION SUMMARY: Tables A-1a to A-7b (structure-property relationship); obtained by methods of Biological Example 1
Note to self: use true only for EC50 readings below 200 nM; a reading exactly at 200 nM still gets false.

• C[C@H](C(=O)O)[C@H](c1ccc2c(c1)O[C@@H](C1CCN(Cc3cc(-c4cn(CCCCCCCCCCCCCCCC(=O)NCCN(CCC(=O)NCCN)CCC(=O)NCCN)nn4)ccc3OC(F)(F)F)CC1)CC2)C1CC1 [Example 39] = true
• COc1ccc(F)c(-c2ccc(COc3cccc([C@@H](CC(=O)O)C4CC4)c3)cc2CC(C)(C)Cn2cc(CCCCCCCCC(=O)NCCN(CCC(=O)NCCN)CCC(=O)NCCN)nn2)c1 [Example 220] = false
• COc1ccc(F)c(-c2ccc(COc3cccc([C@@H](CC(=O)O)C4CC4)c3)cc2CC(C)(C)Cn2cc(CCCCCCCCCC(=O)NCC[N+](C)(CCC(=O)NCCN)CCC(=O)NCCN)nn2)c1 [Example 192] = false
• COc1ccc(C(=O)N(CC(C)(C)CCn2cc(CCCCCCCCCCC(=O)NCCN(CCC(=O)NCCN)CCC(=O)NCCN)nn2)c2cccc(C)n2)c(N2CCC(COc3cc([C@@H](CC(=O)O)C4CC4)ccn3)CC2)c1 [Example 112] = true
• COc1ccc(C(=O)N(CC(C)(C)CCCCCCn2cc(CCCCCCCCC(=O)NCCN(CCC(=O)NCCN)CCC(=O)NCCN)nn2)c2cccc(C)n2)c(N2CCC(COc3cc([C@@H](CC(=O)O)C4CC4)ccn3)CC2)c1 [Example 75] = true
• COc1ccc(F)c(-c2ccc(COc3cccc([C@@H](CC(=O)O)C4CC4)c3)cc2CC(C)(C)Cn2cc(CCCCCCCCCCCCCCC(=O)NCC[N+](C)(CCC(=O)NCCN)CCC(=O)NCCN)nn2)c1 [Example 58] = true
• COc1ccc(C(=O)N(CC(C)(C)CCn2cc(CCCCCCCCC(=O)NCCCN(CC(=O)O)CC(=O)O)nn2)c2cccc(C)n2)c(N2CCC(COc3cc([C@@H](CC(=O)O)C4CC4)ccn3)CC2)c1 [Example 215] = false
• COc1ccc(F)c(-c2ccc(COc3cccc([C@@H](CC(=O)O)C4CC4)c3)cc2CC(C)(C)Cc2cn(CCCCCCCCCCCC(=O)NCCN(CCC(=O)NCCN)CCC(=O)NCCN)nn2)c1 [Example 92] = false
• COc1ccc(C(=O)N(CC(C)(C)CCCCCCn2cc(CCCCCCC(=O)NCCN(CCC(=O)NCCN)CCC(=O)NCCN)nn2)c2cccc(C)n2)c(N2CCC(COc3cc([C@@H](CC(=O)O)C4CC4)ccn3)CC2)c1 [Example 98] = true
• C[C@H](C(=O)O)[C@H](c1ccc2c(c1)O[C@@H](C1CCN(Cc3cc(-c4cn(CCCCCCCCCCCCCC(=O)NCCN(CCC(=O)NCCN)CCC(=O)NCCN)nn4)ccc3OC(F)(F)F)CC1)CC2)C1CC1 [Example 5] = true
• COc1ccc(C(=O)N(CC(C)(C)CCn2cc(CCCCCCCCC(=O)NCCC[N+](C)(CC(=O)[O-])CC(=O)O)nn2)c2cccc(C)n2)c(N2CCC(COc3cc([C@@H](CC(=O)O)C4CC4)ccn3)CC2)c1 (stereo partly drawn) [Example 217] = false
• COc1ccc(C(=O)N(CC(C)(C)CCn2cc(CCCCCCCCCCCC(=O)NCCC[N+](C)(CC(=O)[O-])CC(=O)O)nn2)c2cccc(C)n2)c(N2CCC(COc3cc([C@@H](CC(=O)O)C4CC4)ccn3)CC2)c1 (stereo partly drawn) [Example 127] = true
• COc1ccc(F)c(-c2ccc(COc3cccc([C@@H](CC(=O)O)C4CC4)c3)cc2CC(C)(C)Cn2cc(CCCCCCCCCCCCC(=O)NCC[N+](C)(CCC(=O)NCCN)CCC(=O)NCCN)nn2)c1 [Example 17] = true
• COc1ccc(C(=O)N(CC(C)(C)CCn2cc(CCCCCCCCC(=O)NCCN(CCC(=O)NCCN)CCC(=O)NCCN)nn2)c2cccc(C)n2)c(N2CCC(COc3cc([C@@H](CC(=O)O)C4CC4)ccn3)CC2)c1 [Example 110] = false
• COc1ccc(C(=O)N(CC(C)(C)CCn2cc(CCCCCCCCCC(=O)NCCN(CCC(=O)NCCN)CCC(=O)NCCN)nn2)c2cccc(C)n2)c(N2CCC(COc3cc([C@@H](CC(=O)O)C4CC4)ccn3)CC2)c1 [Example 197] = true
• COc1ccc(F)c(-c2ccc(COc3cccc([C@@H](CC(=O)O)C4CC4)c3)cc2CC(C)(C)Cc2cn(CCCCCCCCCCCCCCCC(=O)NCC[N+](C)(CCC(=O)NCCN)CCC(=O)NCCN)nn2)c1 [Example 90] = true
• COc1ccc(F)c(-c2ccc(COc3cccc([C@@H](CC(=O)O)C4CC4)c3)cc2CC(C)(C)Cn2cc(CCCCCCC(=O)NCC[N+](C)(CCC(=O)NCCN)CCC(=O)NCCN)nn2)c1 [Example 95] = false

###

- TARGET UNDER TEST: GPR40 (Homo sapiens, UniProt O14842)
- Construct: expressed in transfected cells; host or cells: HEK293 cells stably expressing GPR40 (Hygromycin selection)
- Sequence (O14842 whole entry): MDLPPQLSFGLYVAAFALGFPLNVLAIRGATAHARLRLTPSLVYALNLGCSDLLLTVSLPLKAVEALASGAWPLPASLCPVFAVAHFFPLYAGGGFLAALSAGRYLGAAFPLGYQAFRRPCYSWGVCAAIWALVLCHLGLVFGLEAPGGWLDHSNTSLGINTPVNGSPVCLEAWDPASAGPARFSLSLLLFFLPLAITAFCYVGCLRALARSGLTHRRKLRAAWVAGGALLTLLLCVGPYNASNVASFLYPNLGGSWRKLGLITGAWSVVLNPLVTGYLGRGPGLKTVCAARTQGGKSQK
- PROTOCOL DESCRIPTION: IP1 accumulation assay in HEK293 cells stably expressing GPR40
- Assay type: cell-based
- CONDITION SUMMARY: Tables A-1a to A-7b (structure-property relationship); obtained by methods of Biological Example 1
PARAMETER MEASURED: EC50 (nM)

- C[C@H](C(=O)O)[C@H](c1ccc2c(c1)O[C@@H](C1CCN(Cc3cc(-c4cn(CCCCCCCCCCCCCCCCCC(=O)NCC[N+](C)(CCC(=O)NCCN)CCC(=O)NCCN)nn4)ccc3OC(F)(F)F)CC1)CC2)C1CC1: 0.65
- COc1ccc(C(=O)N(CC(C)(C)CCn2cc(CCCCCCCCCCCCCCC(=O)NCCN(CCC(=O)NCCN)CCC(=O)NCCN)nn2)c2cccc(C)n2)c(N2CCC(COc3cc([C@@H](CC(=O)O)C4CC4)ccn3)CC2)c1: 0.33

###

pEC50 for assorted molecules
- TARGET UNDER TEST: GPR40 (Homo sapiens, UniProt O14842)
- Construct: expressed in transfected cells; host or cells: HEK293 cells stably expressing GPR40 (Hygromycin selection)
- PROTOCOL DESCRIPTION: IP1 accumulation assay in HEK293 cells stably expressing GPR40
- Format: cell-based
- CONDITION SUMMARY: Table A-8 (additional examples); obtained by methods of Biological Example 1
pEC50: −log10 of the molar value.
PARAMETER MEASURED: pEC50

• COc1ccc(C(=O)N(CC(C)(C)CCn2cc(CCCCCCCCCCCCC(=O)NCCN(CCC(=O)NCCN)CCC(=O)NCCN)nn2)c2cccc(C)n2)c(N2CCC(COc3cc([C@@H](CC(=O)O)C4CC4)ccn3)CC2)c1 = 9.38
• C[C@H](C(=O)O)[C@H](c1ccc2c(c1)O[C@@H](C1CCN(Cc3cc(-n4cc(CCCCCCCCCCCCC(=O)NCC[N+](C)(CCC(=O)NCCN)CCC(=O)NCCN)nn4)ccc3OC(F)(F)F)CC1)CC2)C1CC1 = 8.02

###

- TARGET UNDER TEST: GPR40 (Homo sapiens, UniProt O14842)
- Construct: expressed in transfected cells; host or cells: HEK293 cells stably expressing GPR40 (Hygromycin selection)
- PROTOCOL DESCRIPTION: IP1 accumulation assay in HEK293 cells stably expressing GPR40
- Type: cell-based
- CONDITION SUMMARY: Tables A-1a to A-7b (structure-property relationship); obtained by methods of Biological Example 1
pEC50: −log10 of the molar value.
pEC50 for assorted molecules
PARAMETER MEASURED: pEC50

* COc1ccc(C(=O)N(CC(C)(C)CCn2cc(CCCCCCCCCCCC(=O)NCCCN(CC(=O)O)CC(=O)O)nn2)c2cccc(C)n2)c(N2CCC(COc3cc([C@@H](CC(=O)O)C4CC4)ccn3)CC2)c1 | 8.24
* COc1ccc(C(=O)N(CC(C)(C)CCCCCCn2cc(CCCCCCCCCCC(=O)NCCN(CCC(=O)NCCN)CCC(=O)NCCN)nn2)c2cccc(C)n2)c(N2CCC(COc3cc([C@@H](CC(=O)O)C4CC4)ccn3)CC2)c1 [Example 74] | 8.52
* COc1ccc(F)c(-c2ccc(COc3cccc([C@@H](CC(=O)O)C4CC4)c3)cc2CC(C)(C)Cn2cc(CCCCCCCCCCCCCCCC(=O)NCC[N+](C)(CCC(=O)NCCN)CCC(=O)NCCN)nn2)c1 | 8.82
* COc1ccc(C(=O)N(CC(C)(C)CCn2cc(CCCCCCCCCCCCCCCC(=O)NCCC[N+](C)(CC(=O)[O-])CC(=O)O)nn2)c2cccc(C)n2)c(N2CCC(COc3cc([C@@H](CC(=O)O)C4CC4)ccn3)CC2)c1 (stereo partly drawn) | 9.36
* COc1ccc(F)c(-c2ccc(COc3cccc([C@@H](CC(=O)O)C4CC4)c3)cc2CC(C)(C)Cc2cn(CCCCCCCCCCCCCCCCCC(=O)NCCN(CCC(=O)NCCN)CCC(=O)NCCN)nn2)c1 | 9.02
* COc1ccc(C(=O)N(CC(C)(C)CCn2cc(CCCCCCCCCC(=O)NCC[N+](C)(CCC(=O)NCCN)CCC(=O)NCCN)nn2)c2cccc(C)n2)c(N2CCC(COc3cc([C@@H](CC(=O)O)C4CC4)ccn3)CC2)c1 | 7.35
* COc1ccc(C(=O)N(CC(C)(C)CCn2cc(CCCCCCCCCCCCCCCCC(=O)NCCCN(CC(=O)O)CC(=O)O)nn2)c2cccc(C)n2)c(N2CCC(COc3cc([C@@H](CC(=O)O)C4CC4)ccn3)CC2)c1 | 9.72
* COc1ccc(F)c(-c2ccc(COc3cccc([C@@H](CC(=O)O)C4CC4)c3)cc2CC(C)(C)Cc2cn(CCCCCCCCCCCCCCCCCC(=O)NCC[N+](C)(CCC(=O)NCCN)CCC(=O)NCCN)nn2)c1 | 8.69
* COc1ccc(F)c(-c2ccc(COc3cccc([C@@H](CC(=O)O)C4CC4)c3)cc2CC(C)(C)Cn2cc(CCCCCCCCCCCCCCCC(=O)NCCN(CCC(=O)NCCN)CCC(=O)NCCN)nn2)c1 | 8.87
* COc1ccc(C(=O)N(CC(C)(C)CCn2cc(CCCCCCCCCCCCCCCC(=O)NCCCN(CC(=O)O)CC(=O)O)nn2)c2cccc(C)n2)c(N2CCC(COc3cc([C@@H](CC(=O)O)C4CC4)ccn3)CC2)c1 | 9.32
* COc1ccc(C(=O)N(CC(C)(C)CCn2cc(CCCCCCCCCCCCCCCC(=O)NCC[N+](C)(CCC(=O)NCCN)CCC(=O)NCCN)nn2)c2cccc(C)n2)c(N2CCC(COc3cc([C@@H](CC(=O)O)C4CC4)ccn3)CC2)c1 | 9.80
* C[C@H](C(=O)O)[C@H](c1ccc2c(c1)O[C@@H](C1CCN(Cc3cc(-n4cc(CCCCCCCCCCCCC(=O)NCCN(CCC(=O)NCCN)CCC(=O)NCCN)nn4)ccc3OC(F)(F)F)CC1)CC2)C1CC1 | 8.26
* COc1ccc(C(=O)N(CC(C)(C)CCn2cc(CCCCCCCCCCCCCCC(=O)NCC[N+](C)(CCC(=O)NCCN)CCC(=O)NCCN)nn2)c2cccc(C)n2)c(N2CCC(COc3cc([C@@H](CC(=O)O)C4CC4)ccn3)CC2)c1 | 10.00
* COc1ccc(F)c(-c2ccc(COc3cccc([C@@H](CC(=O)O)C4CC4)c3)cc2CC(C)(C)Cn2cc(CCCCCCCCCCCCCC(=O)NCC[N+](C)(CCC(=O)NCCN)CCC(=O)NCCN)nn2)c1 | 7.03
* COc1ccc(C(=O)N(CC(C)(C)CCn2cc(CCCCCCCCCCCCCCC(=O)NCCCN(CC(=O)O)CC(=O)O)nn2)c2cccc(C)n2)c(N2CCC(COc3cc([C@@H](CC(=O)O)C4CC4)ccn3)CC2)c1 | 8.90
* C[C@H](C(=O)O)[C@H](c1ccc2c(c1)O[C@@H](C1CCN(Cc3cc(-n4cc(CCCCCCCCCCCCCCC(=O)NCC[N+](C)(CCC(=O)NCCN)CCC(=O)NCCN)nn4)ccc3OC(F)(F)F)CC1)CC2)C1CC1 | 8.17
* COc1ccc(F)c(-c2ccc(COc3cccc([C@@H](CC(=O)O)C4CC4)c3)cc2CC(C)(C)Cc2cn(CCCCCCCCCCCC(=O)NCC[N+](C)(CCC(=O)NCCN)CCC(=O)NCCN)nn2)c1 | 6.48
* COc1ccc(C(=O)N(CC(C)(C)CCCCCCn2cc(CCCCCCC(=O)NCC[N+](C)(CCC(=O)NCCN)CCC(=O)NCCN)nn2)c2cccc(C)n2)c(N2CCC(COc3cc([C@@H](CC(=O)O)C4CC4)ccn3)CC2)c1 | 8.34
